assay.metric: melting point

Consider "C[C@H]1c2cc(F)ccc2-c2ccccc2N1S(=O)(=O)c1ccc(O)cc1" . Its measured melting point is 193 °C

Consider "CCOC(=O)CCn1c(C(=O)NC(N)=S)cc2ccccc21" . Its measured melting point is 160 to 162 °C

Consider "COC(=O)C1=Cc2cccc(C=O)c2OCC1" . Its measured melting point is 122 to 124 °C

Consider "CCC(=O)c1cc2ccccc2cc1C(=O)O" . Its measured melting point is 147 °C

Consider CC(/C=C/[C@H]1C[C@H]1c1ccc2c(c1)C(C)(C)CCC2(C)C)=C\C(=O)O (racemic) . Its measured melting point is 93 to 96 °C

Consider "COc1cc(Cc2cnc(N)nc2NO)cc(OC)c1OC" . Its measured melting point is 208 to 210 °C
